Tested on: HCC827 (EGFR DelE746_A750)
Assay: Inhibition test for growth of cancer cell expressing EGFR (SRB), HCC827;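 note: cells in 96-well plates exposed to tenfold serial dilutions from 100 µM, fixed with trichloroacetic acid, SRB-stained, absorbance read at 540 nm, DMSO under 1%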
Assay type: cell-based
Details: Homo sapiens, HCC827, 72 h, HCC827 cells, 72 hours, SRB; read-out: GI50 HCC827 EGFR DelE746_A750
Below: a set of entries, each annotated with reported GI50.

Consider the reported GI50 for these compounds:
C=CC(=O)Nc1cccc(Nc2nc(Nc3ccc(CCN(C)C)cc3)nc3ccsc23)c1    50 to 100 nM
C=CC(=O)Nc1cccc(Oc2nc(Nc3ccc(NC(=O)N4CCN(C)CC4)c(F)c3)nc3ccsc23)c1    < 50 nM
C=CC(=O)Nc1cccc(Oc2nc(Nc3ccc(C4CCN(C)CC4)cc3)nc3ccsc23)c1    < 50 nM

Switching to the query record.
Requested read-out: GI50. Entry: `C=CC(=O)Nc1cccc(Oc2nc(Nc3ccc(NC(=O)N4CCN(C)CC4)cc3)nc3ccsc23)c1`
50 to 100 nM

* * *

Catalogue of GI50 readings, one per entry.
Test system: NCI-H1975 (EGFR L858R/T790M)
Assay: Inhibition test for growth of cancer cell expressing EGFR (MTS), NCI-H1975
Type: cell-based
Settings: Homo sapiens; NCI-H1975 cells, 48 hours, MTS; read-out: GI50 NCI-H1975 EGFR L858R/T790M

C=CC(=O)Nc1cccc(Oc2nc(Nc3ccc(N4CCC(C(=O)N(C)C)CC4)cc3)nc3ccsc23)c1    < 50 nM
C=CC(=O)Nc1cccc(Nc2nc(Nc3ccc(N4CCN(C(C)C)CC4)cc3)nc3ccsc23)c1    < 50 nM
C=CC(=O)Nc1cccc(Oc2nc(Nc3ccc(NC4CCN(C)CC4)cc3)nc3ccsc23)c1    100 to 1000 nM

Next up:
Form field: GI50 recorded for `C=CC(=O)Nc1cccc(Oc2nc(Nc3ccc(O)cc3)nc3ccsc23)c1` with NCI-H1975 (EGFR L858R/T790M) (enter value)
100 to 1000 nM

* * *

Tested on: NCI-H1975 (EGFR L858R/T790M)
Experiment: Inhibition test for growth of cancer cell expressing EGFR (MTS), NCI-H1975
Type: cell-based
Conditions: Homo sapiens; NCI-H1975 cells, 48 hours, MTS; read-out: GI50 NCI-H1975 EGFR L858R/T790M
In this section we review reported GI50 values for a set of compounds.

As a guide, the following entries are already answered.
C=CC(=O)Nc1cccc(Oc2nc(Nc3ccc4c(c3)OCCO4)nc3ccsc23)c1    < 50 nM
C=CC(=O)Nc1cccc(Oc2nc(Nc3ccc(N4CCC(N5CCOCC5)CC4)cc3)nc3ccsc23)c1    < 50 nM
C=CC(=O)Nc1cccc(Nc2nc(Nc3ccc(CCN4CCN(C)CC4)cc3)nc3ccsc23)c1    < 50 nM
C=CC(=O)Nc1cccc(Oc2nc(Nc3ccc(N4CC[S+]([O-])CC4)cc3)nc3ccsc23)c1    < 50 nM

Consider the additional compound presented here.
What value of GI50 has been reported for the following compound? `C=CC(=O)Nc1cccc(Oc2nc(Nc3ccc(NCCN(C)C)cc3)nc3ccsc23)c1`
100 to 1000 nM

* * *

Biological target: UniProtKB P52333
Sequence (P52333 whole entry): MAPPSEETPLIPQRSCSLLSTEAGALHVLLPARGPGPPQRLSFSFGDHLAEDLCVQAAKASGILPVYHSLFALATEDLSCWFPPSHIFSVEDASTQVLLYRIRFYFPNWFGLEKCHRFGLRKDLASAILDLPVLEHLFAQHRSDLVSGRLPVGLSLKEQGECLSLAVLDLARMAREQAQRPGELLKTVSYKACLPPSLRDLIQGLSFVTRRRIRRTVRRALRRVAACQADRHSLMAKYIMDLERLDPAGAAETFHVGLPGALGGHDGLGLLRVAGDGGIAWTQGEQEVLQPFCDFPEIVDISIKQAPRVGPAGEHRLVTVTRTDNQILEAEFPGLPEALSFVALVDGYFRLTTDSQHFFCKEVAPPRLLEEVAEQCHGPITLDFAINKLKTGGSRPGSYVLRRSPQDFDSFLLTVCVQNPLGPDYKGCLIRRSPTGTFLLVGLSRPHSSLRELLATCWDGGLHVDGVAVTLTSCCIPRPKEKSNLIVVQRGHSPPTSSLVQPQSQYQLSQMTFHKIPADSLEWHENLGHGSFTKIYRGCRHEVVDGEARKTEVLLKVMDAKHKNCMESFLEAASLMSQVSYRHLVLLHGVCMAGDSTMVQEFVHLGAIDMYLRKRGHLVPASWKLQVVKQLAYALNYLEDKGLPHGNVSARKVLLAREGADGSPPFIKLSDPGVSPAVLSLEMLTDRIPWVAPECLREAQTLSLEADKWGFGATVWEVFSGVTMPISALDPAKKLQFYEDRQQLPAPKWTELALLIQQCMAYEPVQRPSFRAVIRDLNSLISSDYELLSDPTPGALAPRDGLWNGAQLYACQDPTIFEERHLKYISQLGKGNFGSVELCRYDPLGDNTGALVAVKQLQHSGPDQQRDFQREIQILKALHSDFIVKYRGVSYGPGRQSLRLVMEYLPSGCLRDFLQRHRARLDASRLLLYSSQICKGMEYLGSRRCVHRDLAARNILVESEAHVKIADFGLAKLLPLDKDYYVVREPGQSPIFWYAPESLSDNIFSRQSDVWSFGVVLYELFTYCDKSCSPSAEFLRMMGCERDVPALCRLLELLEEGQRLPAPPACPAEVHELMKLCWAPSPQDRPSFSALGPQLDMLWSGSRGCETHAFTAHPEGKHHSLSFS
recorded.metric: IC50

Worked cases, IC50 given:
C=CC(=O)Nc1cccc(Oc2nc(Nc3ccc(N4CCN(C(C)C)CC4)nc3)nc3ccsc23)c1    0.05 to 0.1 µM
C=CC(=O)Nc1cccc(Oc2nc(Nc3ccc(C4CCN(CC)CC4)cc3)nc3ccsc23)c1    ≤ 0.05 µM
C=CC(=O)Nc1cccc(Oc2nc(Nc3ccc(NCCN(C)C)c(F)c3)nc3ccsc23)c1    ≤ 0.05 µM
C=CC(=O)Nc1cccc(Oc2nc(Nc3ccc(P(=O)(OCC)OCC)cc3)nc3ccsc23)c1    ≤ 0.05 µM
C=CC(=O)Nc1cccc(Oc2nc(Nc3ccc(CN4CCN(C)CC4)nc3)nc3ccsc23)c1    0.05 to 0.1 µM

Checklist item: IC50 tested on UniProtKB P52333, entry `C=CC(=O)Nc1cccc(Oc2nc(Nc3ccc(CN(C)C)cc3)nc3ccsc23)c1` , value?
≤ 0.05 µM

Recall the recorded IC50 for `C=CC(=O)Nc1cccc(Oc2nc(Nc3ccc(N4CCN(C)CC4)c(F)c3)nc3ccsc23)c1` with UniProtKB P52333 and state it.
0.05 to 0.1 µM

What measured IC50 is associated with `C=CC(=O)Nc1cccc(Oc2nc(Nc3ccc(N4CCC(N5CCCCC5)CC4)nc3)nc3ccsc23)c1` on UniProtKB P52333?
0.05 to 0.1 µM

Given the entry `C=CC(=O)Nc1ccc(F)c(Nc2nc(Nc3ccc(N4CCN(C)CC4)c(F)c3)nc3ccsc23)c1` , what IC50 was observed with UniProtKB P52333?
≤ 0.05 µM

Query IC50 on UniProtKB P52333 for `C=CC(=O)Nc1cccc(Oc2nc(Nc3ccc(N4CCC(N5CCN(CC)CC5)CC4)cc3)nc3ccsc23)c1`
0.05 to 0.1 µM

# value lookup — system UniProtKB P52333, readout IC50, item `C=CC(=O)Nc1cccc(Oc2nc(Nc3ccc(C(=O)NCCN(C)C)cc3)nc3ccsc23)c1`
≤ 0.05 µM

I'm curious: which IC50 was measured for `C=CC(=O)Nc1cccc(Oc2nc(Nc3ccc(NC4CCN(C(C)C)CC4)c(F)c3)nc3ccsc23)c1` tested on UniProtKB P52333?
≤ 0.05 µM

Provide value of IC50 for this record tested with UniProtKB P52333: `C=CC(=O)Nc1cccc(Oc2nc(Nc3ccc(C4CCN(C)CC4)c(F)c3)nc3ccsc23)c1`
0.05 to 0.1 µM

Recorded IC50 for `C=CC(=O)Nc1cccc(Oc2nc(Nc3ccc(N4CCN(C)CC4)cc3)nc3ccsc23)c1` with UniProtKB P52333, please?
≤ 0.05 µM

I'm curious: which IC50 was measured for `C=CC(=O)Nc1cccc(Oc2nc(Nc3ccc(NC4CCN(C)CC4)cc3)nc3ccsc23)c1` tested on UniProtKB P52333?
0.05 to 0.1 µM

Lab request: please report IC50 under test system UniProtKB P52333 for C=CC(=O)Nc1cccc(Oc2nc(Nc3ccc(CN4CCC(N(C)C)C4)cc3)nc3ccsc23)c1 (stereo not shown)
≤ 0.05 µM

* * *

Tested on: NCI-H1975 (EGFR L858R/T790M)
Test: Inhibition test for growth of cancer cell expressing EGFR (MTS), NCI-H1975
Type: cell-based
Details: Homo sapiens; NCI-H1975 cells, 48 hours, MTS; read-out: GI50 NCI-H1975 EGFR L858R/T790M
This listing pairs molecules with measured GI50.

Worked set:
C=CC(=O)Nc1cccc(Oc2nc(Nc3ccc(CCN4CCN(S(=O)(=O)C=C)CC4)cc3)nc3ccsc23)c1 [Example 100]    < 50 nM
C=CC(=O)Nc1cccc(Oc2nc(Nc3ccc4c(ccn4C)c3)nc3ccsc23)c1 [Example 111]    < 50 nM
C=CC(=O)Nc1cccc(Oc2nc(Nc3ccc(N4CCN(C)CC4)cc3)nc3ccsc23)c1 [Example 1]    < 50 nM
C=CC(=O)Nc1cccc(Oc2nc(Nc3ccc(C4(N)CC4)cc3)nc3ccsc23)c1 [Example 160]    < 50 nM
C=CC(=O)Nc1cccc(Oc2nc(Nc3ccc(C(=O)N4CCN(CC)CC4)c(Cl)c3)nc3ccsc23)c1 [Example 203]    < 50 nM
C=CC(=O)Nc1cccc(Oc2nc(Nc3ccc(N4CCN(S(C)(=O)=O)CC4)c(F)c3)nc3ccsc23)c1 [Example 120]    < 50 nM
C=CC(=O)Nc1cccc(Oc2nc(Nc3ccc(CN4CCC(N5CCOCC5)CC4)cc3)nc3ccsc23)c1 [Example 181]    < 50 nM
C=CC(=O)Nc1cccc(Oc2nc(Nc3ccc(C(=O)N(C)C)cc3)nc3ccsc23)c1 [Example 84]    50 to 100 nM
C=CC(=O)Nc1cccc(Oc2nc(Nc3ccc(N4CCN(C)CC4)cc3OC)nc3ccsc23)c1 [Example 2]    50 to 100 nM
C=CC(=O)Nc1cccc(Oc2nc(Nc3ccc(CN(C)C)cc3)nc3ccsc23)c1 [Example 173]    < 50 nM

Now for a further molecule.
Sample C=CC(=O)Nc1cccc(Oc2nc(Nc3ccc(N4CCC(N5CCCC5)CC4)cc3)nc3ccsc23)c1 [Example 47] — what was its GI50?
< 50 nM

* * *

Reported GI50 is given for each of the following molecules.
Test system: NCI-H1975 (EGFR L858R/T790M)
Test: Inhibition test for growth of cancer cell expressing EGFR (MTS), NCI-H1975
Type: cell-based
Settings: Homo sapiens; NCI-H1975 cells, 48 hours, MTS; read-out: GI50 NCI-H1975 EGFR L858R/T790M

Observe how each entry below is paired with its result.
C=CC(=O)Nc1cccc(Nc2nc(Nc3ccc(N4CCN(C)CC4)cc3)nc3ccsc23)c1    < 50 nM
C=CC(=O)Nc1cccc(Nc2nc(Nc3ccc(NC4CCN(C)CC4)c(F)c3)nc3ccsc23)c1    50 to 100 nM
C=CC(=O)Nc1ccc(F)c(Nc2nc(Nc3ccc(N4CCN(C)CC4)c(F)c3)nc3ccsc23)c1    < 50 nM

Item `C=CC(=O)Nc1cccc(Oc2nc(Nc3ccc(N4CCN(C(C)C)CC4)cc3)nc3ccoc23)c1` has what recorded GI50?
< 50 nM
